Target: GST-Ap-NF-kB RHD (Exaiptasia pallida (Aiptasia), UniProt A0A913YAJ5 2-422)
Sequence: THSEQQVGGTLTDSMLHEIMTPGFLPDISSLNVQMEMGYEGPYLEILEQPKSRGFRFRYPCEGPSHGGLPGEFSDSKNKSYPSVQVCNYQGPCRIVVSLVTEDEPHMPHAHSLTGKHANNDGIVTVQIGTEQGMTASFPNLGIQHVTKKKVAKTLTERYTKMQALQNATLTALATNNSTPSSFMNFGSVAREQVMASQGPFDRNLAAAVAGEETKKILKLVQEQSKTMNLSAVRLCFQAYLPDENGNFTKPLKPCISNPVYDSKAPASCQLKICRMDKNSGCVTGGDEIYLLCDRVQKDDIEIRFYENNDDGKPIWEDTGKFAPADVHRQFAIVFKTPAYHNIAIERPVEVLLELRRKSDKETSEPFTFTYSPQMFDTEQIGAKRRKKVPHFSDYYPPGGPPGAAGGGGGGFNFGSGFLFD
Experiment: protein-binding microarray (PBM); PBM: ~300 nM protein, 6 mM HEPES pH 7.8, 80 mM KCl, 0.5 mM EDTA, 0.5 mM EGTA, 6% glycerol, 35 ng/ul poly-dIdC, 1% milk, 1 h, room temperature; Ap Aiptasia and Nv Nematostella (sea anemones) / Co Capsaspora / Aq Amphimedon (sponge) / Dm Drosophila / Hu human; RHD is the Rel homology domain; high values mean tight binding
Details: dsDNA, one strand shown
Parameter: binding signal. Scope: all listed entries.
Form entry: value (z-score) — number only.

Example cases with answers are listed next.
CCGATTAACATCAATTCCCATCCTGATGTTAATCGGGTCTTGATTCGCTTGACGCTGCTG; 1.57
CCGATTAACATCACGGAATACCCTGATGTTAATCGGGTCTTGATTCGCTTGACGCTGCTG; 3.79
CCGATTAACATCAGGGATGCCCCTGATGTTAATCGGGTCTTGATTCGCTTGACGCTGCTG; 6.96

Prompt: Specify measured binding signal for CCGATTAACATCACAAAATTCCCTGATGTTAATCGGGTCTTGATTCGCTTGACGCTGCTG .
Completion: 5.93

Prompt: Specify measured binding signal for CCGATTAACATCACATGTTCCCCTGATGTTAATCGGGTCTTGATTCGCTTGACGCTGCTG .
Completion: 4.94

Prompt: Specify measured binding signal for CCGATTAACATCAAAACCCCCCCTGATGTTAATCGGGTCTTGATTCGCTTGACGCTGCTG .
Completion: 8.72

From: paper PMC5700166
